Tested system: UniProt O15530
Sequence (O15530 1-556): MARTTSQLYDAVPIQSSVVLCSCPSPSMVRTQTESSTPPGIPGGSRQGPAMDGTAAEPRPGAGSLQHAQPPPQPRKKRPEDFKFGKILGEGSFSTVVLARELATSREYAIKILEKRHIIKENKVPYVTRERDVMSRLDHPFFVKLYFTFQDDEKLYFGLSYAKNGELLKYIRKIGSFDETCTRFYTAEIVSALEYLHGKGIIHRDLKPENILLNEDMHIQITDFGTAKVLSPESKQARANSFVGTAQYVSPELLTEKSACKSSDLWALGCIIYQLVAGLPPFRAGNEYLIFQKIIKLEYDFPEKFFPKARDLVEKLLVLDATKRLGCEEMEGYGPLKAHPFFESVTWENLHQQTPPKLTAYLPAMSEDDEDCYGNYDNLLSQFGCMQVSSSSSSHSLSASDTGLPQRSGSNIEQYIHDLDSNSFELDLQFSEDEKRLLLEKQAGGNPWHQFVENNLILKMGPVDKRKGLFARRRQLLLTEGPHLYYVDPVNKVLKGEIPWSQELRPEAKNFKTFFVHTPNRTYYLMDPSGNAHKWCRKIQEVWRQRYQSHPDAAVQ
pIC50: −log10 of the molar value.
// pIC50 lookup, one value per entry

{"columns": ["Compound", "pIC50"],
 "data": [
  ["COc1cc2c(cc1NCCCN1CCCC1)ncc1c(N)nc3c(C)c(N)ccc3c12", 6.07],
  ["COCCOc1cc2ncc3c(N)nc4c(C)c(N)ccc4c3c2cc1OCCOC", 6.56],
  ["COc1cc2c(cc1NCCCN1CCOCC1)ncc1c(N)nc3c(C)c(N)ccc3c12", 6.54],
  ["COc1cc2c(cc1OCC1CCCN(C)C1)ncc1c(N)nc3c(C)c(N)ccc3c12 (stereo not shown)", 5.75]
]}
